# reported inhibition; entries follow
# SYSTEM_NAME: Integrin beta-1 (Homo sapiens) + Integrin alpha-4 (Homo sapiens) (UniProt P13612+P05556)
# Sequence (P05556 whole entry, looked up): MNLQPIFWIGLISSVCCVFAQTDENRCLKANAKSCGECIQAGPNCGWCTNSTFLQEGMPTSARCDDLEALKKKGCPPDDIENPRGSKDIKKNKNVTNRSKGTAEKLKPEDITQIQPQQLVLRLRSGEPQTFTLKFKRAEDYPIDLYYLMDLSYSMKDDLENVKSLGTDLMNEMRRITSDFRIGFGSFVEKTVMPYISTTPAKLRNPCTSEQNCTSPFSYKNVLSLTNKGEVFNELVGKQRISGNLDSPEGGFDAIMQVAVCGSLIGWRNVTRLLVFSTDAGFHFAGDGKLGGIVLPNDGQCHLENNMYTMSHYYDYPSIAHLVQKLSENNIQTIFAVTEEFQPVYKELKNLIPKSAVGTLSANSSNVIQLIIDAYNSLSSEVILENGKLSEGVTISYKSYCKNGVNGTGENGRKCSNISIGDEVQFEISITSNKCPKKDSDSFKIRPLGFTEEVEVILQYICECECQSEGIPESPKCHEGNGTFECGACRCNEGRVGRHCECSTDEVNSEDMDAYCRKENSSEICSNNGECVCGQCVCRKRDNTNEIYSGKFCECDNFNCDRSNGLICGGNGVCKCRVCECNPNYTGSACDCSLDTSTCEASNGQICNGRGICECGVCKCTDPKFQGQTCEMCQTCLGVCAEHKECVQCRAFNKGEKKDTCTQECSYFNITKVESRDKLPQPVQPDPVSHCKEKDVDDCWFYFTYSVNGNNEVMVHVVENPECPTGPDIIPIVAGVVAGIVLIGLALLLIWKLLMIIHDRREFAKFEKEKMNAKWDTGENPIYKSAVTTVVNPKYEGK
# Sequence (P13612 whole entry, looked up): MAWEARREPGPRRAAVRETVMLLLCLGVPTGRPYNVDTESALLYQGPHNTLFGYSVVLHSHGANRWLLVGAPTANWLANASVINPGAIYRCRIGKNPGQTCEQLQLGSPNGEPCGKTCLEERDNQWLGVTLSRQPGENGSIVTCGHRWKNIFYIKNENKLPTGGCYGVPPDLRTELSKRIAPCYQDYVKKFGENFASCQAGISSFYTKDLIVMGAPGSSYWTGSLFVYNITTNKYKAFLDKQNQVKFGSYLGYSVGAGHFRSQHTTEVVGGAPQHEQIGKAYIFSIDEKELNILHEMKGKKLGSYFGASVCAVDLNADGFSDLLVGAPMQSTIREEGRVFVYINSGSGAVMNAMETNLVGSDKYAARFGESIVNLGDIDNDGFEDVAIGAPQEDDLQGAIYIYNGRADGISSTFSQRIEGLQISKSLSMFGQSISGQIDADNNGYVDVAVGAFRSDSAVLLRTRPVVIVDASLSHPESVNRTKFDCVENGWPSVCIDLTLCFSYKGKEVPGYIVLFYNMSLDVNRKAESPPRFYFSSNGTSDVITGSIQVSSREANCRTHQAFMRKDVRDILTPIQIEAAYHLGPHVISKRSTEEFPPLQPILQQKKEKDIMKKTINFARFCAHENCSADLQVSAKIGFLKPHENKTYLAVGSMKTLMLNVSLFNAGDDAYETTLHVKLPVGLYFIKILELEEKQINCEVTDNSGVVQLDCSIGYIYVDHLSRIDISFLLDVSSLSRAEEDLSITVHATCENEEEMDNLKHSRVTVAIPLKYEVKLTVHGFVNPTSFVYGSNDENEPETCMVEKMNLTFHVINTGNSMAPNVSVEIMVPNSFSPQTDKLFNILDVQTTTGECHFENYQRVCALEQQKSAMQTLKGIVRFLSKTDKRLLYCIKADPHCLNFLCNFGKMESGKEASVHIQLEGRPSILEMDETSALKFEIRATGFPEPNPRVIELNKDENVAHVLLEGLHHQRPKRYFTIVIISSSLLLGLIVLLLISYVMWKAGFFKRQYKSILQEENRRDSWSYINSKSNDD
# ASSAY_NAME: inhibition of HUTS-21 binding to VLA-4, pilot screen, VLA-4 allosteric modulator project, U937 cells, HUTS-21 mAb, flow cytometry, validation set (AID 2674);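 further: antibody binding induced by the VLA-4 ligand LDV present at three times its Kd; 0% = LDV ligand with antibody and no compound and 100% = antibody without LDV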
# RECORDED_CONDITIONS: HUTS-21 LIBS mAb binding, at 6.7 µM, stronger effect = higher value, binding induced by LDV ligand
Active and inactive are the calls of the source.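 How the source made its calls: active means inhibition above 50%, about 3 SD of the validation set; inactive means the rest.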

| COMPOUND | inhibition |
| --- | --- |
| Cc1cc(-c2ccccc2)nnc1NCCN1CCOCC1 | 0.64% (inactive) |
| CCOC(=O)c1cnc2ccc(C(=O)OC)cc2c1Nc1ccc2c(c1)OCCO2 | 0.59% (inactive) |
| CN(CCCN1CCOCC1)Cc1cn(C)nc1-c1ccccc1F | -8.78% (inactive) |
| Cc1ccc2c(c1)C(O)(c1c(C)[nH]c3ccccc13)C(=O)N2 (stereo not drawn) | -4.9% (inactive) |

Return reported inhibition for target or system Integrin beta-1 (Homo sapiens) + Integrin alpha-4 (Homo sapiens) (UniProt P13612+P05556), item `CC(=O)CCc1oc2ccccc2c1-c1ccccc1` .
0.59% (inactive)

Provide Integrin beta-1 (Homo sapiens) + Integrin alpha-4 (Homo sapiens) (UniProt P13612+P05556) inhibition reading for `COC(=O)c1[nH]c2ccc(F)cc2c1NC(=O)C1=COCCO1` .
-3.04% (inactive)

Report value only: inhibition, Integrin beta-1 (Homo sapiens) + Integrin alpha-4 (Homo sapiens) (UniProt P13612+P05556), `CCOC(=O)Nc1ccc2c(c1)N(C(=O)CCN1CCOCC1)c1ccccc1S2`
-8.64% (inactive)

Fill in: inhibition on Integrin beta-1 (Homo sapiens) + Integrin alpha-4 (Homo sapiens) (UniProt P13612+P05556), entry CCc1cc(=O)oc2cc(C)c(CN3CCCC(C)C3)c(O)c12 (stereo not drawn)
-5.84% (inactive)

Tell me its inhibition on Integrin beta-1 (Homo sapiens) + Integrin alpha-4 (Homo sapiens) (UniProt P13612+P05556): `O=C(/C=C/c1ccc(Cl)cc1)NCCc1ccccc1`
2.56% (inactive)

Fill in inhibition for CC(O)Cn1cnc2c1c(=O)n(C)c(=O)n2C (stereo not drawn) tested with Integrin beta-1 (Homo sapiens) + Integrin alpha-4 (Homo sapiens) (UniProt P13612+P05556).
4.42% (inactive)

State the measured inhibition (Integrin beta-1 (Homo sapiens) + Integrin alpha-4 (Homo sapiens) (UniProt P13612+P05556)) of `Fc1cccc(Cc2noc(CN3CCN(c4cnccn4)CC3)n2)c1`
-3.57% (inactive)

With Integrin beta-1 (Homo sapiens) + Integrin alpha-4 (Homo sapiens) (UniProt P13612+P05556) as the test system, provide measured inhibition for this compound: CCOC(=O)c1c(C)oc2cc(Br)c(OC(C)C(=O)OCC)cc12 (stereo not drawn)
2.58% (inactive)

====

# ASSAY_NAME: AGP1-GFP expression modulators, hit retest, confirmation, cell-based, flow cytometry, S. cerevisiae, cherry picks (AID 2273);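 further: median GFP channel fluorescence over the whole cell population gate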
# RECORDED_CONDITIONS: S. cerevisiae AGP1-GFP strain, 3 h, at 10 µM
RECORDED_METRIC: GFP response, % of DMSO (%)
Only the number, expressed in %, is required.

Here is how some compounds turned out for GFP response, % of DMSO.
| STRUCTURE_STRING | ENDPOINT_UNIT | TEST_VALUE |
| --- | --- | --- |
| Cc1ccc(S(=O)(=O)c2ncccc2[N+](=O)[O-])cc1 | % | 109 |
| COc1ccc(C(=O)Nc2c(N)nc[nH]c2=O)cc1 | % | 103 |
| CCOc1ccc(-c2noc(-c3cccnc3)n2)cc1OC | % | 95.6 |
| CN1c2ccsc2/C(=N/Nc2ccc(F)cc2)CS1(=O)=O | % | 103 |

Output measured GFP response, % of DMSO for this item: `COc1ccc(-c2csc(N(CC(C)C)C(=O)c3ccco3)n2)cc1`
100

// Input: `O=C(O)c1ccc(SCc2cnc(Cl)s2)cc1` . Output its GFP response, % of DMSO only.
114

Name the recorded GFP response, % of DMSO of the item `Cc1cc(C)nc(/N=C(\N)N2CCCCCC2)n1` in your answer.
99.5

// fetch GFP response, % of DMSO given entry `C#CCSc1nncn1C(=O)/C=C/c1ccccc1`
101

# return recorded GFP response, % of DMSO for input `COc1ccc(/C=C2\Sc3ccc(C(=O)N4CCc5ccccc5C4)cc3N(C)C2=O)cc1`
102

State, in one line, measured GFP response, % of DMSO of `Cc1cccn2c(=O)c(/C=C(\C#N)C(=O)NCc3ccccc3)c(N3CCC(C(N)=O)CC3)nc12`
104

Report GFP response, % of DMSO for `CC[n+]1ccc(/C=C/c2c[nH]c3ccccc23)cc1`
102

====

# ASSAY_NAME: modulators of CIT2-GFP expression in yeast, confirmation, S. cerevisiae, GFP fusion, cherry picks, mother/daughter gates (AID 2274)
# RECORDED_CONDITIONS: S. cerevisiae CIT2-GFP strain, flow cytometry, 3 h; at 10 µM; stronger effect = higher value
The source made the active and inactive calls.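 Rule for the calls: active = GFP response above 150% of the DMSO level; inconclusive = fewer than 70 events counted for a yeast strain; inactive = the rest.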
RECORDED_METRIC: GFP response, % of DMSO

| COMPOUND | GFP response, % of DMSO |
| --- | --- |
| Cc1ccc(N2CCN(C(=O)c3ccccc3)CC2)c(C)c1 | 107% (inactive) |

Give the reported GFP response, % of DMSO for this compound. COc1ccc(-c2ccc(SCC(=O)N3c4ccccc4CC3C)nn2)cc1OC (stereo unspecified)
96.4% (inactive)

Kindly indicate its recorded GFP response, % of DMSO. Item: `O=C(c1ccc2c(c1)OCO2)N1CCN(c2ccc(F)cc2)CC1`
99.1% (inactive)

Note down GFP response, % of DMSO recorded for `Cc1cccc(C)c1OCCOC(=O)c1n[nH]c2ccccc12`
95% (inactive)

====

# ASSAY_NAME: LAP4-GFP expression modulators in yeast, confirmation, cell-based, cherry picks, flow cytometry, mother/daughter gates (AID 2271);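 further: ratio of sample to DMSO plate mean so 100% equals DMSO level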
# RECORDED_CONDITIONS: S. cerevisiae LAP4-GFP strain, 3 h, at 10 µM, stronger effect = higher value, 100 means same as DMSO control
Activity calls are given as the source filed them.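 How the source made its calls: active means GFP response above 150% of the DMSO control; inconclusive means fewer than 70 events counted in any yeast strain; inactive means the rest.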
RECORDED_METRIC: GFP response relative to DMSO

Worked cases, answers included:
| MOLECULE | GFP response relative to DMSO |
| --- | --- |
| CCc1ccc(NC(=O)c2nc(S(=O)(=O)Cc3ccccc3)ncc2Cl)cc1 | 126% (inactive) |
| CCN(C(=O)c1ccccc1Cl)c1ccccc1 | 107% (inactive) |
| Cc1ccc(-n2ncc(C#N)c2/N=C/N(C)C)cc1 | 101% (inactive) |

Now let's try a different one.
Identify measured GFP response relative to DMSO associated with `O=C(Nc1cccc(F)c1)c1ccccc1`
97% (inactive)

====

# ASSAY_NAME: modulators of CIT2-GFP expression in yeast, confirmation, S. cerevisiae, GFP fusion, cherry picks, mother/daughter gates (AID 2274)
# RECORDED_CONDITIONS: S. cerevisiae CIT2-GFP strain, flow cytometry, 3 h; measured here: mother cell gate; at 10 µM; stronger effect = higher value
GFP response, % of DMSO listing for selected compounds.
The answer consists of two parts: a number and, after it, its unit.

Below, each entry is followed by its recorded GFP response, % of DMSO result.
| STRUCTURE_STRING | GFP response, % of DMSO |
| --- | --- |
| O=C(CN1CCCC1)Nc1cc(C(F)(F)F)cc(C(F)(F)F)c1 | 97.1% |
| COc1ccc(OC(=O)c2cccc(S(=O)(=O)N3CCCC3)c2)cc1 | 101% |
| O=C(NCC(=O)N1CCCC1)c1cccs1 | 104% |
| O=C(NOC(=O)c1ccccc1)c1ccccc1 | 96.6% |
| O=C1C(Cl)=C(Nc2ccccc2O)C(=O)N1CCc1ccccc1 | 104% |
| Cc1cccc(CN2CCSc3sccc3C2=O)c1 | 109% |

Specify measured GFP response, % of DMSO for `COc1cccc(C(=O)N/N=C(\CC(C)C)c2ccccc2)c1` .
103%

State its GFP response, % of DMSO for this compound: `Cc1ccc(C(=O)OCC(=O)Nc2ccccc2Sc2ccccc2)cc1C`
105%

Specify reported GFP response, % of DMSO for the compound shown: `Cc1ccc(/C(C#N)=C\c2ccc(N3CCOCC3)o2)cc1`
99.3%

Give me measured GFP response, % of DMSO, please, for this compound: `COc1cccc(/C=N\NC(=O)c2cc(OCC(F)(F)F)ccc2OCC(F)(F)F)c1`
98.5%

Kindly indicate its recorded GFP response, % of DMSO. Item: `O=C(Nc1nnc(-c2ccc(F)cc2)o1)c1cccc([N+](=O)[O-])c1`
99.3%
